Biological target: STK24 (human)
Assay: KINOMEscan competition binding
Settings: compound 10.0 µM
measure_name: kinase still bound, per cent of control (%)
Form entry: value (%) — number only.

Task item: What measured kinase still bound, per cent of control is associated with `CCc1nc(-c2cccc(C)c2)c(-c2ccnc(NC(=O)c3ccccc3)c2)s1` on STK24 (human)?
Reply: 69

Task item: `N#Cc1cc(-c2ccnc(Nc3ccc(-n4cnc(-c5cccnc5)n4)cc3)n2)cc(N2CCOCC2)c1` ?
Reply: 70

Task item: `C=CC(=O)Nc1ccc(C(=O)c2sc(Nc3ccc(N4CCN(C)CC4)cc3OC)nc2N)cc1` ?
Reply: 71

---

Biological target: HCK (human)
Experiment: KINOMEscan competition binding
Details: compound 10.0 µM
Label key: condition met means kinase still bound, per cent of control under 40%; condition not met means kinase still bound, per cent of control of 40% or more.

Task item: Does the reported kinase still bound, per cent of control of the following compound sit strictly below 40%? `N#Cc1cc(-c2ccnc(Nc3ccc(-n4cnc(-c5cccnc5)n4)cc3)n2)cc(N2CCOCC2)c1`
Reply: condition not met

Task item: `CCN1CCN(Cc2ccc(NC(=O)c3ccc(C)c(/C=C/c4cnc5[nH]ccc5c4OC)c3)cc2C(F)(F)F)CC1` ?
Reply: condition met

Task item: COc1cc(C)c(Sc2cnc(NC(=O)c3ccc(CNC(C)C(C)C)cc3)s2)cc1C(=O)N1CCN(C(C)=O)CC1 (stereo not drawn) ?
Reply: condition not met

Task item: `COc1cc2c(Nc3ccc(NC(=O)c4ccccc4)cc3)ncnc2cc1OCCCN1CCOCC1` ?
Reply: condition met

Task item: `COc1cc(N2CCC(C(N)=O)CC2)ccc1Nc1nc(N)c(Cl)c(Nc2ccccc2S(=O)(=O)C(C)C)n1` ?
Reply: condition met

Task item: `CNC(=O)Nc1ccc(-c2nc(N3CC4CCC(C3)O4)c3cnn(C4CCC5(CC4)OCCO5)c3n2)cc1` ?
Reply: condition not met

Task item: `Cc1cn(-c2cc(C(=O)Nc3ccc(C)c(NC(=O)c4ccno4)c3)cc(C(F)(F)F)c2)cn1` ?
Reply: condition met

---

Molecular target: MAPK4 (human) (UniProt P31152)
Sequence (P31152 whole entry, looked up): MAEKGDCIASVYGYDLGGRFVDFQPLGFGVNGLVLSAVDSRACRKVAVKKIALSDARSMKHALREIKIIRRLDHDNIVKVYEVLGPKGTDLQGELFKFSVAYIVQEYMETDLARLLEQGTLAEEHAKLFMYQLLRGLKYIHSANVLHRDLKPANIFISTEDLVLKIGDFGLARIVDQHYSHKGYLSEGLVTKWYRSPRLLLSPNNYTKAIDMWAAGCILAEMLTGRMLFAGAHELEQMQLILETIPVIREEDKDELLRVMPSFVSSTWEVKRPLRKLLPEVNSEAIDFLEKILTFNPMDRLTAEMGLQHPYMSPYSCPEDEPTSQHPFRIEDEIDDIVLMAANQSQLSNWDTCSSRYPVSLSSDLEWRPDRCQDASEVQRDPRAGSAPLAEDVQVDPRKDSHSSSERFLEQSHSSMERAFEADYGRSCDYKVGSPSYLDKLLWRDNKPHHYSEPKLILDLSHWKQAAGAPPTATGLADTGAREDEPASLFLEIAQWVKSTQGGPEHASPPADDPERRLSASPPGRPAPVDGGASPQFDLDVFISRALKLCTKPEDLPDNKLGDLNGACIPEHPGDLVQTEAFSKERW
Experiment: KINOMEscan competition binding
Conditions: compound 10.0 µM
measure_name: kinase still bound, per cent of control
Number first, unit second: that is the form wanted.

Task item: // lookup kinase still bound, per cent of control for `COc1cc2ncnc(Nc3cccc(Cl)c3)c2cc1OC`
Reply: 16%

Task item: `COc1cc2c(Nc3ccc(NC(=O)c4ccccc4)cc3)ncnc2cc1OCCCN1CCOCC1` ?
Reply: 100%

Task item: CC1=C(C(=O)Nc2cc3cn[nH]c3cc2F)C(c2ccc(C(F)(F)F)cc2)CC(=O)N1 (stereo not drawn) ?
Reply: 100%

---

Task for the reader: assign each of the following compounds its reported kinase still bound, per cent of control.
Molecular target: MAP2K6 (human)
Experiment: KINOMEscan competition binding
Settings: compound 10.0 µM
Form entry: value (%) — number only.

Task item: // lookup kinase still bound, per cent of control for `CCCS(=O)(=O)Nc1ccc(F)c(C(=O)c2c[nH]c3ncc(Cl)cc23)c1F`
Reply: 47

Task item: `N#Cc1cc(-c2ccnc(Nc3ccc(-n4cnc(-c5cccnc5)n4)cc3)n2)cc(N2CCOCC2)c1` ?
Reply: 41

Task item: `CCN(CCO)CCCOc1ccc2c(Nc3cc(CC(=O)Nc4cccc(F)c4)[nH]n3)ncnc2c1` ?
Reply: 99

Task item: `COc1cc2ncnc(Nc3cccc(Cl)c3)c2cc1OC` ?
Reply: 95
